measurement.protocol: Pharmacokinetic study in healthy adults of single vs. multiple oral doses of colchicine tablets (Example 1)
Format: in vivo, human
assay.context: human, plasma, po, 0.6 mg, single oral dose colchicine 0.6 mg, healthy adults N=13, plasma, mean; read-out: AUC0-t, MEAN
outcome.measure: AUC(0-t) (ng·h/mL)
Answer with a number only, understood to be in ng·h/mL.

Ask: Form field: reported AUC(0-t) of COc1cc2c(c(OC)c1OC)-c1ccc(OC)c(=O)cc1[C@@H](NC(C)=O)CC2 [Colchicine]
Result: 10.5

----------
measurement.protocol: Pharmacokinetic study in healthy adults of single vs. multiple oral doses of colchicine tablets (Example 1)
Assay type: in vivo, human
assay.context: human, plasma, po, 0.6 mg, multiple (b.i.d.) oral doses colchicine 0.6 mg for 10 days, Day 25, healthy adults N=13, plasma, median; read-out: Cmax, MEDIAN
outcome.measure: Cmax (ng/mL)
Answer with a number only, understood to be in ng/mL.

Ask: Form field: reported Cmax of COc1cc2c(c(OC)c1OC)-c1ccc(OC)c(=O)cc1[C@@H](NC(C)=O)CC2
Result: 3.73

----------
measurement.protocol: Pharmacokinetic study in healthy adults of single vs. multiple oral doses of colchicine tablets (Example 1)
Format: in vivo, human
assay.context: human, plasma, po, 0.6 mg, single oral dose colchicine 0.6 mg, healthy adults N=13, median; read-out: Tmax, MEDIAN
outcome.measure: Tmax (h)
Answer with a number only, understood to be in h.

Ask: Form field: reported Tmax of COc1cc2c(c(OC)c1OC)-c1ccc(OC)c(=O)cc1[C@@H](NC(C)=O)CC2
Result: 1.5

----------
measurement.protocol: Pharmacokinetic study in healthy adults of single vs. multiple oral doses of colchicine tablets (Example 1)
Assay type: in vivo, human
assay.context: human, plasma, po, 0.6 mg, multiple (b.i.d.) oral doses colchicine 0.6 mg for 10 days, Day 25, healthy adults N=13, median; read-out: T1/2, MEDIAN (converted)
outcome.measure: half-life (h)
Answer with a number only, understood to be in h.

Ask: Form field: reported half-life of COc1cc2c(c(OC)c1OC)-c1ccc(OC)c(=O)cc1[C@@H](NC(C)=O)CC2
Result: 26.5

----------
measurement.protocol: Pharmacokinetic study in healthy adults of single vs. multiple oral doses of colchicine tablets (Example 1)
Assay type: in vivo, human
assay.context: human, plasma, po, 0.6 mg, multiple (b.i.d.) oral doses colchicine 0.6 mg for 10 days, Day 25, healthy adults N=13, mean; read-out: T1/2, MEAN (converted)
outcome.measure: half-life (h)
Answer with a number only, understood to be in h.

Ask: Form field: reported half-life of COc1cc2c(c(OC)c1OC)-c1ccc(OC)c(=O)cc1[C@@H](NC(C)=O)CC2
Result: 26.6

----------
measurement.protocol: Pharmacokinetic study in healthy adults of single vs. multiple oral doses of colchicine tablets (Example 1)
Format: in vivo, human
assay.context: human, plasma, po, 0.6 mg, multiple (b.i.d.) oral doses colchicine 0.6 mg for 10 days, Day 25, healthy adults N=13, mean; read-out: Tmax, MEAN
outcome.measure: Tmax (h)
Answer with a number only, understood to be in h.

Ask: Form field: reported Tmax of COc1cc2c(c(OC)c1OC)-c1ccc(OC)c(=O)cc1[C@@H](NC(C)=O)CC2
Result: 1.31

----------
measurement.protocol: Pharmacokinetic study in healthy adults of single vs. multiple oral doses of colchicine tablets (Example 1);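 note: Single-dose and multiple-dose periods given to the same subjects, with a 14-day washout between the two periods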
Type: in vivo, human
assay.context: human, plasma, po, 0.6 mg, single oral dose colchicine 0.6 mg, healthy adults N=13, plasma, median; read-out: Cmax, MEDIAN
outcome.measure: Cmax (ng/mL)
Answer with a number only, understood to be in ng/mL.

Ask: Form field: reported Cmax of COc1cc2c(c(OC)c1OC)-c1ccc(OC)c(=O)cc1[C@@H](NC(C)=O)CC2
Result: 2.48

Hey, just so you know, these numbers are from patent US20110046227A1.
